- experiment-description: Antiproliferative activity against human HBL100 cells after 48 hrs by sulforhodamine B assay
- Type: functional
- condition-description: HBL-100, 48 h
value-kind: log10 GI50 (log10 of the value in µM)
# log10 transformed; quantity=GI50; unit=µM

Example entries begin here.
compound=Oc1cc(/C=N/NC(=[Se])Nc2cccc3ccccc23)cc(O)c1O value_kind="log10 GI50" experimental_result=0.38
compound=O=Cc1cc(O)c(O)c(O)c1 value_kind="log10 GI50" experimental_result=1.86
compound=Oc1ccc(/C=N/NC(=S)Nc2ccccc2)cc1 value_kind="log10 GI50" experimental_result=1.63

log10 GI50 lookup needed for "Oc1cc(O)c(/C=N/NC(=S)Nc2ccccc2)cc1O" , thanks.
1.46

I would be grateful if you could share the reported log10 GI50 for "Oc1ccc(/C=N/NC(=[Se])Nc2ccccc2)cc1" .
1.11

What measured log10 GI50 goes with "O=c1[nH]cc(F)c(=O)[nH]1" ?
0.74

GET /values?readout=log10 GI50&item= "Oc1cc(/C=N/NC(=S)Nc2ccccc2)cc(O)c1O"
1.85

I would be grateful if you could share the reported log10 GI50 for "Oc1ccc(/C=N/NC(=[Se])Nc2cccc3ccccc23)cc1" .
0.32

Reported log10 GI50, compound "Oc1cc(O)c(/C=N/NC(=[Se])Nc2cccc3ccccc23)cc1O" : ____
0.60

Reported log10 GI50 for "Oc1ccc(/C=N/NC(=S)Nc2ccccc2)cc1O" : what is it?
1.54

For the compound "Oc1ccc(/C=N/NC(=[Se])Nc2cccc3ccccc23)cc1O" , what log10 GI50 is on record?
0.41

Which log10 GI50 is listed for "Oc1ccc(/C=N/NC(=[Se])Nc2ccccc2)cc1O" ?
0.58

Could you tell me which log10 GI50 is on file for "Oc1cc(/C=N/NC(=[Se])Nc2ccccc2)cc(O)c1O" ?
0.30
